Every entry's value here was drawn from patent US8618170B2.

test: Pharmacokinetics after IV or oral administration in rat; format: in vivo, SD rat; settings: male, Sprague-Dawley, rat, plasma, po, 50 mg/kg, SD rat M, 0.5% MC (suspension); reference Compound 1 IV bolus
READOUT: bioavailability (%)
Give bare numbers, in %.

Consider the molecule "CN(NC(=O)CC(=O)NN(C)C(=S)c1ccccc1)C(=S)c1ccccc1" . State its measured bioavailability.
6.6

---

Assay: Pharmacokinetics after IV or oral administration in rat
Type: in vivo, SD rat
Details: male, Sprague-Dawley, rat, plasma, po, 50 mg/kg, SD rat M, Saline
Method: The pharmacokinetics of compounds of the invention were compared in mouse, rat and dog by either intravenous or oral administration in various formulations including drug powder in capsules or in combination with generally recognized as safe (GRAS) excipients. […] Compounds were extracted by protein precipitation and analyzed by LC-UV or LC-MS/MS. […] Oral bioavailability (% F) was calculated based on AUC of Compound 1. […]
READOUT: half-life (h)
Give bare numbers, in h.

Given "CN(NC(=O)CC(=O)NN(C)C(=S)c1ccccc1)C(=S)c1ccccc1" , respond with its half-life.
2.5

---

experiment: Pharmacokinetics after IV or oral administration in rat; format: in vivo, SD rat; settings: male, Sprague-Dawley, rat, plasma, po, 80 mg/kg, SD rat M, HP-β-CD/saline
READOUT: AUC(0-inf) (ng·h/mL)
Numbers only, in ng·h/mL.

Let me know recorded AUC(0-inf) for CN(NC(=O)CC(=O)NN(C)C(=S)c1ccccc1)C(=S)c1ccccc1 [Compound 1] , thanks.
4330

---

test: Pharmacokinetics after IV or oral administration in rat; assay type: in vivo, SD rat; conditions: male, Sprague-Dawley, rat, plasma, po, 80 mg/kg, SD rat M, HP-β-CD/saline
READOUT: Tmax

Input CN(NC(=O)CC(=O)NN(C)C(=S)c1ccccc1)C(=S)c1ccccc1 [Compound 1] , output reported Tmax.
15 to 30 min

---

test: Pharmacokinetics after IV or oral administration in dog; type: in vivo; settings: male, beagle, dog, plasma, iv, 10 mg/kg, Beagle dog M, 1 h IV infusion, EES (sol'n)
READOUT: half-life (h)
Numbers only, in h.

Look up and state reported half-life for "CN(NC(=O)CC(=O)NN(C)C(=S)c1ccccc1)C(=S)c1ccccc1"
1.2

---

assay: Pharmacokinetics after IV or oral administration in mouse; format: in vivo; details: female, plasma; CD-1 mouse F, IV bolus, EES (sol'n), 10 mg/kg
READOUT: half-life (min)
Answers are plain numbers, in min.

Quickly give me recorded half-life for "CN(NC(=O)CC(=O)NN(C)C(=S)c1ccccc1)C(=S)c1ccccc1"
54

---

assay: Pharmacokinetics after IV or oral administration in dog; assay type: in vivo; details: male, plasma; Beagle dog M, PO, capsule (powder), 50 mg/kg as Compound 1 (free acid)
READOUT: half-life

Report measured half-life; entry is "CN(NC(=O)CC(=O)NN(C)C(=S)c1ccccc1)C(=S)c1ccccc1"
3 h

---

experiment: Pharmacokinetics after IV or oral administration in dog; assay type: in vivo; details: male, beagle, dog, plasma, po, 50 mg/kg, Beagle dog M, TPGS/PEG400 (sol'n)
READOUT: Cmax (ng/mL)
One number for each entry, in ng/mL.

Consider the molecule "CN(NC(=O)CC(=O)NN(C)C(=S)c1ccccc1)C(=S)c1ccccc1" . State its measured Cmax.
38100

---

assay: Pharmacokinetics after IV or oral administration in dog; type: in vivo; settings: male, beagle, dog, plasma, po, 50 mg/kg, Beagle dog M, nanoparticles (colloidal dispersion)
READOUT: half-life (h)
One number for each entry, in h.

Entry CN(NC(=O)CC(=O)NN(C)C(=S)c1ccccc1)C(=S)c1ccccc1 [Compound 1] needs its half-life filled in; supply it.
4.8

---

assay: Pharmacokinetics after IV or oral administration in dog; type: in vivo; conditions: male, beagle, dog, plasma, po, 50 mg/kg, Beagle dog M, nanoparticles (colloidal dispersion)
READOUT: Cmax
Phrase the answer as number then unit, nothing more needed.

Find the measured Cmax of CN(NC(=O)CC(=O)NN(C)C(=S)c1ccccc1)C(=S)c1ccccc1 [Compound 1] and report it.
16800 ng/mL

---

assay: Pharmacokinetics after IV or oral administration in rat; type: in vivo, SD rat; conditions: male, Sprague-Dawley, rat, plasma, iv, 50 mg/kg, SD rat M, IV bolus, Phospholipid
READOUT: AUC(0-inf) (ng·h/mL)
Answers are plain numbers, in ng·h/mL.

Look up AUC(0-inf) of "CN(NC(=O)CC(=O)NN(C)C(=S)c1ccccc1)C(=S)c1ccccc1" and report it.
29700

---

test: Pharmacokinetics after IV or oral administration in dog; format: in vivo; conditions: male, plasma; Beagle dog M, PO, capsule (powder), 50 mg/kg as Compound 1 (free acid)
READOUT: Cmax (ng/mL)
Numbers only, in ng/mL.

Quote Cmax reported for CN(NC(=O)CC(=O)NN(C)C(=S)c1ccccc1)C(=S)c1ccccc1 [Compound 26] please.
19700

---

assay: Pharmacokinetics after IV or oral administration in dog; assay type: in vivo; settings: male, beagle, dog, plasma, iv, 10 mg/kg, Beagle dog M, 1 h IV infusion, EES (sol'n)
READOUT: Tmax (h)
One number for each entry, in h.

Using the record for "CN(NC(=O)CC(=O)NN(C)C(=S)c1ccccc1)C(=S)c1ccccc1" , state its measured Tmax.
1

---

test: Pharmacokinetics after IV or oral administration in dog; format: in vivo; details: male, beagle, dog, plasma, po, 50 mg/kg, Beagle dog M, nanoparticles (colloidal dispersion)
READOUT: Tmax (min)
One number for each entry, in min.

Fill in reported Tmax for this entry: "CN(NC(=O)CC(=O)NN(C)C(=S)c1ccccc1)C(=S)c1ccccc1"
48

---

test: Pharmacokinetics after IV or oral administration in mouse; assay type: in vivo; details: female, plasma; CD-1 mouse F, PO, TPGS/PEG400 (sol'n), 100 mg/kg
READOUT: Tmax (min)
One number for each entry, in min.

Write down Tmax measured for item "CN(NC(=O)CC(=O)NN(C)C(=S)c1ccccc1)C(=S)c1ccccc1"
15

---

assay: Pharmacokinetics after IV or oral administration in rat; type: in vivo, SD rat; settings: male, Sprague-Dawley, rat, plasma, po, 50 mg/kg, SD rat M, Saline
READOUT: Cmax
Hey, just the number and the unit after it is fine.

Specify reported Cmax for the compound shown: "CN(NC(=O)CC(=O)NN(C)C(=S)c1ccccc1)C(=S)c1ccccc1"
2.4 µg/mL

---

assay: Pharmacokinetics after IV or oral administration in rat; format: in vivo, SD rat; details: male, Sprague-Dawley, rat, plasma, po, 50 mg/kg, SD rat M, TPGS/PEG400 (sol'n)
READOUT: AUC(0-inf) (µg·h/mL)
Give bare numbers, in µg·h/mL.

Assign AUC(0-inf) to the following record: "CN(NC(=O)CC(=O)NN(C)C(=S)c1ccccc1)C(=S)c1ccccc1"
2.77

---

Assay: Pharmacokinetics after IV or oral administration in rat
Type: in vivo, SD rat
Conditions: male, Sprague-Dawley, rat, plasma, other: PI, 80 mg/kg, SD rat M, route PI, Lyophilized HP-β-CD/saline, 80 mg/kg
Description: The pharmacokinetics of compounds of the invention were compared in mouse, rat and dog by either intravenous or oral administration in various formulations including drug powder in capsules or in combination with generally recognized as safe (GRAS) excipients. […] Compounds were extracted by protein precipitation and analyzed by LC-UV or LC-MS/MS. […] Oral bioavailability (% F) was calculated based on AUC of Compound 1. […]
READOUT: bioavailability (%)
Answers are plain numbers, in %.

Please look at this molecule and report its bioavailability: "CN(NC(=O)CC(=O)NN(C)C(=S)c1ccccc1)C(=S)c1ccccc1"
21.3

---

assay: Pharmacokinetics after IV or oral administration in dog; type: in vivo; details: male, beagle, dog, plasma, po, 50 mg/kg, Beagle dog M, nanoparticles (colloidal dispersion)
READOUT: AUC(0-inf)

Hello, please tell me recorded AUC(0-inf) for this one: CN(NC(=O)CC(=O)NN(C)C(=S)c1ccccc1)C(=S)c1ccccc1 [Compound 1]
57500 ng·h/mL

---

assay: Pharmacokinetics after IV or oral administration in rat; assay type: in vivo, SD rat; details: male, Sprague-Dawley, rat, plasma, iv, 80 mg/kg, SD rat M, IV bolus, Lyophilized HP-β-CD/saline
READOUT: Tmax (min)
Numbers only, in min.

Return reported Tmax. Input compound: "CN(NC(=O)CC(=O)NN(C)C(=S)c1ccccc1)C(=S)c1ccccc1"
4.98

---

I'd be grateful if you could share measured solubility for these entries.
experiment: Aqueous solubility; type: physicochemical; conditions: water

CN(/N=C(\[O-])C/C([O-])=N/N(C)C(=S)c1ccccc1)C(=S)c1ccccc1.[Na+].[Na+] :: ~50 mg/mL

// next item, solubility requested
Determine from records and report solubility for "CN(NC(=O)CC(=O)NN(C)C(=S)c1ccccc1)C(=S)c1ccccc1"
< 0.1 mg/mL
